# studyTarget: T1, PUF4 RNA-binding domain (Saccharomyces cerevisiae, UniProt P25339 537-888)
# T1 sequence: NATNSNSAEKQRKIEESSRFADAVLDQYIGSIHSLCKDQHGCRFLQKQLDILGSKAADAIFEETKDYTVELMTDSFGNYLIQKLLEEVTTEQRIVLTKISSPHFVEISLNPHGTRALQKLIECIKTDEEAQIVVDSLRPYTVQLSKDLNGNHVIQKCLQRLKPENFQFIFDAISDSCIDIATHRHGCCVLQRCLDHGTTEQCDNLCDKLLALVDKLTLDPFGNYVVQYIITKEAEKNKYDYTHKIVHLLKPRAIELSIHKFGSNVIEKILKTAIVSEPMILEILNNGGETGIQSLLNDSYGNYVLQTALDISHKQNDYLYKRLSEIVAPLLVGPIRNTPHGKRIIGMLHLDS
# protocolNotes: Mg; RNA-MaP; 20 mM Na-HEPES pH 7.4, 30 mM KOAc, 0.75 mM MgCl2, 0.1% Tween-20, 5% glycerol, 0.1 mg/mL BSA, 2 mM DTT; 25 C; 0.0125-409.6 nM protein
# runParameters: tags: N-His6-TEV cleaved; C-SNAP kept, Cy3B-labelled; label: tethered on chip by stalled RNA polymerase
# Condition met = Kd below 10 nM (exclusive); Condition not met = Kd at/above 10 nM

INSERT INTO assay_data (binder, qualitativelabel) VALUES
  ('Id_ii_S4_P4E.3_K4.2_C4.2_[C-2G]_H4.2_A4.1_F4.1_T4.2_[G10A] (ssRNA) RNA: UUUGACAACUGAUCGUUCUUUCUGUUAUAUAUUAAUUUCUUUCUCGAUCAGUUGUCUUU', 'Condition not met'),
  ('Id_ii_S2_P4E.3_K4.2_C4.2_[C-2T]_[T-1C]_H4.2_A4.1_F4.1_T4.2_[G10C]_[T11C] (ssRNA) RNA: UUUGAUUAAUAUGAUAUCGUUCUUUCUUCUAUAUAUUACCUUCUUUCUCGAUAUCAUAUUAAUCUUU', 'Condition met'),
  ('Ib_S2_P5E.1_K5.1_C5.1_H5.1_[A4T]_A5.1_[T6A]_F5.1_T5.1 (ssRNA) RNA: UUUGAUUAAUAUGAUAUCGUUCUUUCUUGUUUAAUUAUUCUUUCUCGAUAUCAUAUUAAUCUUU', 'Condition not met'),
  ('Ic_S4_P4E.1_K4.1_C4.1_H4.1_A4.1_[T5G]_[A6T]_[T7A]_F4.1_[T8G]_[A9T]_T4.1 (ssRNA) RNA: UUUGACAACUGAUCGUUCUUUCUUGUAGUAGUUUCUUUCUCGAUCAGUUGUCUUU', 'Condition not met'),
  ('UCUCUUUGUUGUAUUAUCUCUU (ssRNA) [Ib_S1_P5E.1_K5.1_C5.1_H5.1_[A4T]_A5.1_[T5G]_F5.1_T5.1]', 'Condition not met'),
  ('UCUCUUUGUAUAUCUUCUCUU (ssRNA) [Ib_S1_P4E.1_K4.1_C4.1_H4.1_A4.1_F4.1_[T8C]_[A9T]_T4.1]', 'Condition not met'),
  ('UCUCUUUGUAACCUAUUCUCUU (ssRNA) [Ic_S1_P5E.1_K5.1_C5.1_H5.1_A5.1_[T5A]_[T6C]_[A7C]_F5.1_[T9A]_[A10T]_T5.1]', 'Condition not met'),
  ('Ie_S2_P3E.2_K3.1_C3.2_H3.1_[+1TCTCT]_A3.1_F3.1_T3.2 (ssRNA) RNA: UUUGAUUAAUAUGAUAUCGUUCUUUCUCUUUCUCUGUAUAUAUAUUCUUUCUCGAUAUCAUAUUAAUCUUU', 'Condition met'),
  ('Ic_S2_P5E.1_K5.1_C5.1_H5.1_A5.1_[T6A]_[A7C]_F5.1_[T8C]_[T9C]_[A10G]_T5.1 (ssRNA) RNA: UUUGAUUAAUAUGAUAUCGUUCUUUCUUGUAUACCCGUUCUUUCUCGAUAUCAUAUUAAUCUUU', 'Condition not met'),
  ('UCUCUUUCAUGUAAAUAUAUCUCUU (ssRNA) [Id_iii_S1_P3E.8_K3.4_C3.3_[T-1A]_H3.1_A3.2_F3.1_T3.2]', 'Condition not met'),
  ('UCUCUUUUACACUAUACUUCUCUU (ssRNA) [Id_ii_S1_P3E.4_K3.3_C3.2_[C-2T]_H3.3_A3.1_F3.1_T3.2_[T9C]_[A10T]]', 'Condition not met'),
  ('Id_iii_S2_P4E.6_K4.2_C4.3_[T-1A]_H4.2_A4.1_F4.1_T4.2 (ssRNA) RNA: UUUGAUUAAUAUGAUAUCGUUCUUUCUUCAUAUAUAUUAGUUUCUUUCUCGAUAUCAUAUUAAUCUUU', 'Condition met'),
  ('UCUCUUUGUAUAUUACCUCUUCUCUU (ssRNA) [Ie_S1_P4E.1_K4.1_C4.1_H4.1_A4.1_F4.1_[+9CCTCT]_T4.1]', 'Condition met'),
  ('Ic_S2_P5E.1_K5.1_C5.1_H5.1_A5.1_[T5A]_[T6C]_[A7T]_F5.1_[T9G]_[A10T]_T5.1 (ssRNA) RNA: UUUGAUUAAUAUGAUAUCGUUCUUUCUUGUAACUUGUUUCUUUCUCGAUAUCAUAUUAAUCUUU', 'Condition not met'),
  ('Id_ii_S2_P4E.2_K4.1_C4.2_[C-2G]_H4.1_A4.1_F4.1_T4.2_[G10T]_[T11C] (ssRNA) RNA: UUUGAUUAAUAUGAUAUCGUUCUUUCUGUUGUAUAUUAUCUUCUUUCUCGAUAUCAUAUUAAUCUUU', 'Condition met'),
  ('UCUCUUUGUAUCUCAUCUCUU (ssRNA) [Ib_S1_P4E.1_K4.1_C4.1_H4.1_A4.1_[A6C]_F4.1_[T8C]_T4.1]', 'Condition not met'),
  ('Ie_S2_P4E.1_K4.1_C4.1_H4.1_A4.1_[+7CCTC]_F4.1_T4.1 (ssRNA) RNA: UUUGAUUAAUAUGAUAUCGUUCUUUCUUGUAUAUCCUCUAUUCUUUCUCGAUAUCAUAUUAAUCUUU', 'Condition not met'),
  ('ACAAACCUUAUAUAUAUCACAAAC (ssRNA) [Id_ii_S3_P3E.3_K3.2_C3.2_H3.2_A3.1_F3.1_T3.2_[A10C]]', 'Condition not met'),
  ('UCUCUUUGUAAGUUCUUCUCUU (ssRNA) [Ic_S1_P5E.1_K5.1_C5.1_H5.1_A5.1_[T5A]_[T6G]_[A7T]_F5.1_[T9C]_[A10T]_T5.1]', 'Condition not met'),
  ('Ic_S2_P5E.1_K5.1_C5.1_H5.1_A5.1_[T5C]_[T6G]_[A7T]_F5.1_[T8C]_[T9C]_[A10C]_T5.1 (ssRNA) RNA: UUUGAUUAAUAUGAUAUCGUUCUUUCUUGUACGUCCCUUCUUUCUCGAUAUCAUAUUAAUCUUU', 'Condition not met'),
  ('UCUCUUUGUACAUAGUUCUCUU (ssRNA) [Ic_S1_P5E.1_K5.1_C5.1_H5.1_A5.1_[T5C]_[T6A]_[A7T]_F5.1_[T8A]_[T9G]_[A10T]_T5.1]', 'Condition met'),
  ('Ic_S4_P5E.1_K5.1_C5.1_H5.1_A5.1_[T6G]_[A7C]_F5.1_T5.1 (ssRNA) RNA: UUUGACAACUGAUCGUUCUUUCUUGUAUGCUUAUUCUUUCUCGAUCAGUUGUCUUU', 'Condition not met'),
  ('Ic_S2_P4E.1_K4.1_C4.1_H4.1_A4.1_[T5C]_[A6C]_F4.1_[T8A]_[A9T]_T4.1 (ssRNA) RNA: UUUGAUUAAUAUGAUAUCGUUCUUUCUUGUACCUAUUUCUUUCUCGAUAUCAUAUUAAUCUUU', 'Condition met');
